List of sensor-assay potency score (higher = more potent) values.
- TARGET_SYSTEM: HMX2
- METHOD: pooled miR-30 sensor sort-seq; sequence = guide strand; note: reference of the scale not given here
- CONDITION_SUMMARY: shRNA

Would you please look over these solved cases?
{"PRIMARY_SEQUENCE": "ATGGACTGGATGGTGAAGCTGG", "RESULT": -1.05}
{"PRIMARY_SEQUENCE": "TTCTTTAAAGTCCGAGTGCGAA", "RESULT": -1.59}

`TTTCTCTTCTTTAAAGTCCGAG` tested on HMX2 gave sensor-assay potency score (higher = more potent): -0.831

----------
- TARGET_SYSTEM: ZNF384
- METHOD: pooled miR-30 sensor sort-seq; sequence = guide strand
- CONDITION_SUMMARY: shRNA
Entries get a class label from measured sensor-assay potency score (higher = more potent). See ranges: bottom (below -0.9), middle (-0.9 to below 0.2), top (0.2 or more)

Class (by measured sensor-assay potency score (higher = more potent)) for `TTTATCTTTGTTGTGTTGCCGT` middle

Class (by measured sensor-assay potency score (higher = more potent)) for `ATCTTGTTGATGAACATTGTGT` middle

Class (by measured sensor-assay potency score (higher = more potent)) for `AATGTCAGTGAGCACATCCGGC` middle

Class (by measured sensor-assay potency score (higher = more potent)) for `TTGTGTTCTCGATCTGACCTGA` top

Class (by measured sensor-assay potency score (higher = more potent)) for `TTGGACTCTGTGTCCATACTGA` middle

Class (by measured sensor-assay potency score (higher = more potent)) for `TTGAGCTTGAGCCTGGGCCTGG` bottom

Class (by measured sensor-assay potency score (higher = more potent)) for `TTGGAGTAGAATGTCAGTGAGC` bottom

Class (by measured sensor-assay potency score (higher = more potent)) for `TTGATGAACATTGTGTTCTCGA` top

Class (by measured sensor-assay potency score (higher = more potent)) for `TTATCTTTGTTGTGTTGCCGTC` middle

----------
- TARGET_SYSTEM: QSER1
- METHOD: pooled miR-30 sensor sort-seq; sequence = guide strand
- CONDITION_SUMMARY: shRNA
ASSAY_READOUT: sensor-assay potency score (higher = more potent)
// response body must contain only the number

Would you please look over these solved cases?
{"PRIMARY_SEQUENCE": "TACAACTGTATTTTCTCTGGAT", "MEASURED_NUMBER": 0.0285}
{"PRIMARY_SEQUENCE": "TTTAATAACACTACATTCTCGA", "MEASURED_NUMBER": 0.61}
{"PRIMARY_SEQUENCE": "TTGAATAACATGACCTTCCATC", "MEASURED_NUMBER": -0.458}
{"PRIMARY_SEQUENCE": "TTCATTATCAACTTTATCTGAT", "MEASURED_NUMBER": 0.462}
{"PRIMARY_SEQUENCE": "TACTACTAGAAACAAACTCTTG", "MEASURED_NUMBER": -0.942}
{"PRIMARY_SEQUENCE": "TATAAGTTGATTCTTGAGCATT", "MEASURED_NUMBER": -1.01}

Could you now consider this next sequence?
Value of measured sensor-assay potency score (higher = more potent) for the entry `TAACTTGATCTTCAAGACGGGA` : -1.26
